Measured recovery at 90 min, listed per entry.
# assay-notes: Bi-directional Caco-2 permeability
# Type: in vitro ADME
# measurement-parameters: human, Caco-2, apical to basolateral; read-out: AB Recovery %
Lab book: enter the figure in %, no units written.

Consider the compound CC(C)(C)NS(=O)(=O)c1cc(NC(=O)NCc2ccccc2)ccc1-c1cnc(C2CCC(NC(=O)OC3COC3)CC2)s1 (stereo not drawn) and give its measured recovery at 90 min. 65.3

Continuing:
Consider the compound CC(C)OC(=O)NC1CCC(c2ncc(-c3ccc(NC(=O)NCc4cccc(F)c4)cc3S(=O)(=O)NC(C)(C)C)s2)CC1 (stereo not drawn) and give its measured recovery at 90 min. 92

Consider the compound "CC(C)OC(=O)N[C@H]1CC[C@H](c2ncc(-c3ccc(NC(=O)NCc4ccccn4)cc3S(=O)(=O)NC(C)(C)C)s2)CC1" and give its measured recovery at 90 min. 93.9

Consider the compound CC(C)NC(=O)OC1CCC(c2ncc(-c3ccc(NC(=O)OC(C)C)cc3S(=O)(=O)NC(C)(C)C)s2)CC1 (stereo not drawn) and give its measured recovery at 90 min. 44.8

Consider the compound CC(C)OC(=O)Nc1ccc(-c2cnc(C3CCC(NC(=O)OC(C)(C)C)CC3)s2)c(S(=O)(=O)NC(C)(C)C)c1 (stereo not drawn) and give its measured recovery at 90 min. 36.2

Consider the compound CC(C)OC(=O)NC1CCC(c2nc(F)c(-c3ccc(NC(=O)NCc4ccccc4)cc3S(=O)(=O)NC(C)(C)C)s2)CC1 (stereo not drawn) and give its measured recovery at 90 min. 61.9

====

# assay-notes: Bi-directional Caco-2 permeability
# Format: in vitro ADME
# measurement-parameters: human, Caco-2; apical to basolateral, 37 C, up to 90 minutes; read-out: AB Papp (cm/sec × 10^6)
Measured Papp A→B, listed per entry.
Lab book: enter the figure in ×10⁻⁶ cm/s, no units written.

Consider the compound CC(C)(C)NS(=O)(=O)c1cc(NC(=O)NCc2ccccc2)ccc1-c1cnc(C2CCC(NC(=O)OC3COC3)CC2)s1 (stereo not drawn) [Compound 47] and give its measured Papp A→B. 8.7

Consider the compound CC(C)OC(=O)Nc1ccc(-c2cnc(C3CCC(NC(=O)OC(C)(C)C)CC3)s2)c(S(=O)(=O)NC(C)(C)C)c1 (stereo not drawn) [Compound 44] and give its measured Papp A→B. 3.2

Consider the compound CC(C)OC(=O)NC1CCC(c2nc(F)c(-c3ccc(NC(=O)NCc4ccccc4)cc3S(=O)(=O)NC(C)(C)C)s2)CC1 (stereo not drawn) [Compound 57] and give its measured Papp A→B. 1.3

Every entry's value here was drawn from patent US11607404B2.
